- Target System: chymotrypsin (Bos taurus)
- Construct: purchased Sigma-Aldrich (supplement); Calbiochem; host or cells: bovine pancreas
- Assay Notes: Irreversible inhibition kinetics of chymotrypsin (fluorogenic substrate progress curves)
- Format: biochemical, bovine
- Condition Description: Succinyl-Ala-Ala-Pro-Phe-NHMec 50 μM, PBS pH 7.4, 37°C, mean ± SD (n=3)
Endpoint Name: pKi
One number for each entry, as −log10 of the molar value.

API: value(readout= pKi, system= chymotrypsin (Bos taurus), query= O=C(CCCCC1SCC2NC(=O)NC21)NCCCOCCOCCOCCCNC(=O)CNC(=O)CNC(=O)CN(Cc1ccccc1)C(=O)ON1C(=O)CCC1=O (stereo not shown) ) 6.05
